- target_entity: thymidine-phosphorylase from human spleen (Homo sapiens, UniProt P19971)
- Construct: thymidine-phosphorylase from human spleen; from tissue; host or cells: human spleen
- Sequence (P19971 11-482): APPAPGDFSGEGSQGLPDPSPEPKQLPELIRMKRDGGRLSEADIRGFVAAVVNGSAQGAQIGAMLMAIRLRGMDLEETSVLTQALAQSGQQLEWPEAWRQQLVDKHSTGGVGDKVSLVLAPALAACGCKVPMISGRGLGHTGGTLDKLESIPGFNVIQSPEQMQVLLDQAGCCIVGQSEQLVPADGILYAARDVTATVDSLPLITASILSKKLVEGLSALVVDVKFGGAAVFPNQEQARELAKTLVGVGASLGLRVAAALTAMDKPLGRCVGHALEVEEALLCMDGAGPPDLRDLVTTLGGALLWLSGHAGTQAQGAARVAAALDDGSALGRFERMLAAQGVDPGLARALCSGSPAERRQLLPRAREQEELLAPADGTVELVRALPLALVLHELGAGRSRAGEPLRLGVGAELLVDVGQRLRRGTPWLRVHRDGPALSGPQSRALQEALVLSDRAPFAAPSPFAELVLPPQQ
- assay_info: Phosphorolytic cleavage by thymidine-phosphorylase
- Assay type: in vitro ADME
observation_type: metabolised at 3 h, 1000 µM

## Input Short answer please: metabolised at 3 h, 1000 µM, thymidine-phosphorylase from human spleen (Homo sapiens, UniProt P19971), entry Cc1cn([C@H]2C[C@H](F)[C@@H](CO)O2)c(=O)[nH]c1=O [FTdR, 2',3'-dideoxy-3'-fluorothymidine]
## Output 3 to 8%

----------
- Test system: REH acute lymphatic leukemia
- assay_info: Inhibition of proliferation of REH cells
- Assay type: cell-based
- test_settings: Homo sapiens, dose required to reduce the cell number by 50%, read-out: CD50 (the source's name)
observation_type: IC50 (µM)
Please state the figure in µM; there is no need to write the unit.

## Input Please look up its IC50: Cc1cn([C@H]2C[C@H](F)[C@@H](CO)O2)c(=O)[nH]c1=O
## Output 160
